Cited source for all entries: patent US10174032B2

- assayed_system: PI3K-delta (Homo sapiens, UniProt O00329)
- Sequence (O00329 whole entry, species assumed): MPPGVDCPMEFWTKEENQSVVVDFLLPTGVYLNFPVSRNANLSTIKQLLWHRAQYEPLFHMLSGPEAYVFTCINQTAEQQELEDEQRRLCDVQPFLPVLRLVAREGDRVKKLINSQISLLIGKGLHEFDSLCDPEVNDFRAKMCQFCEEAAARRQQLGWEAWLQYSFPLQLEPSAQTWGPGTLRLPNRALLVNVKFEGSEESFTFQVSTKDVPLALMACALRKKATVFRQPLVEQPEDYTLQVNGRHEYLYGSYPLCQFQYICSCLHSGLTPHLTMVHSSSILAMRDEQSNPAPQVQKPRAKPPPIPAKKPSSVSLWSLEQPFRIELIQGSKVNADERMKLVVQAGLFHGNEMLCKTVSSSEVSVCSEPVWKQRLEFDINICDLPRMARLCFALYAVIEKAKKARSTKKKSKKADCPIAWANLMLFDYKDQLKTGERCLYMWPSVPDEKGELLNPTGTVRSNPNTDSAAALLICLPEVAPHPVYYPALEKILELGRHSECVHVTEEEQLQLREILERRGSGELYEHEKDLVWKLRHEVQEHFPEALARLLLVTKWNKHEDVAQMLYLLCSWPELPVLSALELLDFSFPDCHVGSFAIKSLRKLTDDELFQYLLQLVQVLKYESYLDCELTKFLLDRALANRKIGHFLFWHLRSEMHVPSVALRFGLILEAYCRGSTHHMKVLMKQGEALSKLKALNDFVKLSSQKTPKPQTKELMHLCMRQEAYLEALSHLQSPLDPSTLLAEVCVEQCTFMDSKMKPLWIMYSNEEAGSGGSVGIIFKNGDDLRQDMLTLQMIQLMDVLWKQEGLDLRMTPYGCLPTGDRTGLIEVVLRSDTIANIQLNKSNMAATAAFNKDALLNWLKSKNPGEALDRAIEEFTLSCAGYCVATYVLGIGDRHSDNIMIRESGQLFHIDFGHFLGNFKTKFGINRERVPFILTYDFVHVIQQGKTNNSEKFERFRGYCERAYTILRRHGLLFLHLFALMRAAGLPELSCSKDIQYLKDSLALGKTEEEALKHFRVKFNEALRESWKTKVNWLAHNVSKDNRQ
- Sequence (P27986 whole entry partner, species assumed): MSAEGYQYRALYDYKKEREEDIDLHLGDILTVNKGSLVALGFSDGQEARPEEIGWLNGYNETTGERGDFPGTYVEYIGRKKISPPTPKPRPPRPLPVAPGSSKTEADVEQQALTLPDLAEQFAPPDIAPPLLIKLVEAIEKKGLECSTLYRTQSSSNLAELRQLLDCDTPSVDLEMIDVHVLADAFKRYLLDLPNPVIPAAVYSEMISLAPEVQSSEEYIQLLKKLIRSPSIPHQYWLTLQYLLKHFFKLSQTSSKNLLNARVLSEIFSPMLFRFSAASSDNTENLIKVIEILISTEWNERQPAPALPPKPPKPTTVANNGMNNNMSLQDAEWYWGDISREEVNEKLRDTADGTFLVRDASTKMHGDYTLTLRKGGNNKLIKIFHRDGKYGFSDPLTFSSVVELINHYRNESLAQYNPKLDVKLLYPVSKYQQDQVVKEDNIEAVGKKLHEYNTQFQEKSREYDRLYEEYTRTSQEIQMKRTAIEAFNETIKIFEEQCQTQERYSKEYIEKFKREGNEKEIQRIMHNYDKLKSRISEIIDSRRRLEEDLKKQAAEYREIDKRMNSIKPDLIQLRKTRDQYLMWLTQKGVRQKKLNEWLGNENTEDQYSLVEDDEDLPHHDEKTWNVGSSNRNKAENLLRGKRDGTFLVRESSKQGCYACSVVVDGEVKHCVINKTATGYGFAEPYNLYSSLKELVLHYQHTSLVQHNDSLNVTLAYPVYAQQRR
- experiment_summary: Kinase inhibition assay, P-33 labelled ATP phosphate transfer, PI3K-delta
- Type: biochemical
- measurement_parameters: read-out: PI3K-delta(% Inh at 300 nM)
Think of 30% as a floor: if inhibition at 0.3 µM stands on it or above, it is MET; beneath it, NOT MET.

Use these answered entries as a reference point.
CN(C)c1ccc(-c2csc3c(=O)nc(N4CCOCC4)oc23)cc1 MET
O=c1nc(N2CCOCC2)oc2c(-c3ccoc3)csc12 NOT MET
COc1ccc(-c2csc3c(=O)nc(N4CCOCC4)oc23)cc1 NOT MET
Cc1nc2c(=O)nc(N3CCOCC3)[nH]c2n1-c1ccccc1 MET

Please examine the following record next.
State whether the measured inhibition at 0.3 µM reaches 30%, counting equality as reaching it, for `Cc1ccc(-n2c(C)nc3c(=O)nc(N4CCOCC4)[nH]c32)cc1`
NOT MET

###

- assayed_system: PI3K-delta (Homo sapiens)
- experiment_summary: Kinase inhibition assay, P-33 labelled ATP phosphate transfer, PI3K-delta
- Type: biochemical
- measurement_parameters: read-out: PI3K-delta(% Inh at 10 μM)
property: inhibition at 10 µM (%)
Write the number in % without appending the unit.

O=c1nc(N2CCOCC2)[nH]c2c1cnn2C1CCCCC1 18
O=c1nc(N2CCOCC2)[nH]c2c1cnn2-c1ccc2c(c1)OCCO2 50

Okay, next one:
I would be grateful if you could share the reported inhibition at 10 µM for `O=c1nc(N2CCOCC2)[nH]c2c1cnn2Cc1ccccc1` .
0

###

- assayed_system: PI3K-beta (Homo sapiens)
- experiment_summary: Kinase inhibition assay, P-33 labelled ATP phosphate transfer, PI3K-beta
- Type: biochemical
- measurement_parameters: read-out: PI3K-beta(% Inh at 300 nM)
property: inhibition at 0.3 µM
Returns: string containing the numeric result and its unit.

Cc1ccc(-n2c(C)nc3c(=O)nc(N4CCOCC4)[nH]c32)cc1 0%
Cc1nc2c(=O)nc(N3CCOCC3)[nH]c2n1Cc1ccccc1 0%
Cc1nc2c(=O)nc(N3CCOCC3)[nH]c2n1-c1ccccc1 0%

Looking for the measured inhibition at 0.3 µM of `Cc1nc2c(=O)nc(N3CCOCC3)[nH]c2n1-c1ccc2[nH]ccc2c1` , can you help?
2.5%

Report inhibition at 0.3 µM for `Cc1nc2c(=O)nc(N3CCOCC3)[nH]c2n1-c1ccc(F)cc1` please.
14%

###

- assayed_system: PI3K-beta (Homo sapiens, UniProt P42338)
- Sequence (P42338 whole entry, species assumed): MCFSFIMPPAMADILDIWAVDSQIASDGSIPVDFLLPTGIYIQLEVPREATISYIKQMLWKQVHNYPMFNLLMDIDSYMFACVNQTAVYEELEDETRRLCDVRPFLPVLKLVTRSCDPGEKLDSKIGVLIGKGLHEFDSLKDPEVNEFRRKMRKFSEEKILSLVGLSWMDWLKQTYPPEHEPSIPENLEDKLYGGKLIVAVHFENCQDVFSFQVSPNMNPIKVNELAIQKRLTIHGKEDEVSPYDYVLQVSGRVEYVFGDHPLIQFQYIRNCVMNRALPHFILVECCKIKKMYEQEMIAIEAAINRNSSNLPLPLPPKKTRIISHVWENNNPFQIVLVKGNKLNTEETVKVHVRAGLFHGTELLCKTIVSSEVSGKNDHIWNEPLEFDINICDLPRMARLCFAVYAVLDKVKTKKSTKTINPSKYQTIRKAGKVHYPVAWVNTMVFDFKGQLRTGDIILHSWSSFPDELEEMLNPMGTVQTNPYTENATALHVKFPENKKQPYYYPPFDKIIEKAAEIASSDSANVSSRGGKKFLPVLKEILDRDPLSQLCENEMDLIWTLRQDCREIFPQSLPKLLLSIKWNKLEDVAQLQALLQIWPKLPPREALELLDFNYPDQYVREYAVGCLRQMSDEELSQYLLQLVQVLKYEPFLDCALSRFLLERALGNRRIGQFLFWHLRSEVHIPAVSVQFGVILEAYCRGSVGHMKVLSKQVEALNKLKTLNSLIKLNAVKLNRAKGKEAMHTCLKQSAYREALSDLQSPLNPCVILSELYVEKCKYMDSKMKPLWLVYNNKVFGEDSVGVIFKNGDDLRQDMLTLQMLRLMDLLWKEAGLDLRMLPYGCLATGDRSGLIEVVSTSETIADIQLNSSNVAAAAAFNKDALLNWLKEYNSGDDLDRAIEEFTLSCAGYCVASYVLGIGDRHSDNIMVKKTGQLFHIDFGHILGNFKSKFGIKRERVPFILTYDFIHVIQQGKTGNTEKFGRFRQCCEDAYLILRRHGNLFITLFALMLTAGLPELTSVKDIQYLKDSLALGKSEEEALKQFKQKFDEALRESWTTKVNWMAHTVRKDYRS
- Sequence (P27986 whole entry partner, species assumed): as the sequence (P27986 whole entry partner, species assumed) above
property: pIC50
Remember the convention: pIC50 equals -log10 of concentration in molar.

Provide value of pIC50 for this record tested with PI3K-beta (Homo sapiens, UniProt P42338): `O=c1nc(N2CCOCC2)oc2c(-c3ccccc3)csc12`
5.00

###

# inhibition at 0.3 µM values compiled below
- assayed_system: PI3K-alpha (Homo sapiens, UniProt P42336)
- Sequence (P42336 whole entry, species assumed): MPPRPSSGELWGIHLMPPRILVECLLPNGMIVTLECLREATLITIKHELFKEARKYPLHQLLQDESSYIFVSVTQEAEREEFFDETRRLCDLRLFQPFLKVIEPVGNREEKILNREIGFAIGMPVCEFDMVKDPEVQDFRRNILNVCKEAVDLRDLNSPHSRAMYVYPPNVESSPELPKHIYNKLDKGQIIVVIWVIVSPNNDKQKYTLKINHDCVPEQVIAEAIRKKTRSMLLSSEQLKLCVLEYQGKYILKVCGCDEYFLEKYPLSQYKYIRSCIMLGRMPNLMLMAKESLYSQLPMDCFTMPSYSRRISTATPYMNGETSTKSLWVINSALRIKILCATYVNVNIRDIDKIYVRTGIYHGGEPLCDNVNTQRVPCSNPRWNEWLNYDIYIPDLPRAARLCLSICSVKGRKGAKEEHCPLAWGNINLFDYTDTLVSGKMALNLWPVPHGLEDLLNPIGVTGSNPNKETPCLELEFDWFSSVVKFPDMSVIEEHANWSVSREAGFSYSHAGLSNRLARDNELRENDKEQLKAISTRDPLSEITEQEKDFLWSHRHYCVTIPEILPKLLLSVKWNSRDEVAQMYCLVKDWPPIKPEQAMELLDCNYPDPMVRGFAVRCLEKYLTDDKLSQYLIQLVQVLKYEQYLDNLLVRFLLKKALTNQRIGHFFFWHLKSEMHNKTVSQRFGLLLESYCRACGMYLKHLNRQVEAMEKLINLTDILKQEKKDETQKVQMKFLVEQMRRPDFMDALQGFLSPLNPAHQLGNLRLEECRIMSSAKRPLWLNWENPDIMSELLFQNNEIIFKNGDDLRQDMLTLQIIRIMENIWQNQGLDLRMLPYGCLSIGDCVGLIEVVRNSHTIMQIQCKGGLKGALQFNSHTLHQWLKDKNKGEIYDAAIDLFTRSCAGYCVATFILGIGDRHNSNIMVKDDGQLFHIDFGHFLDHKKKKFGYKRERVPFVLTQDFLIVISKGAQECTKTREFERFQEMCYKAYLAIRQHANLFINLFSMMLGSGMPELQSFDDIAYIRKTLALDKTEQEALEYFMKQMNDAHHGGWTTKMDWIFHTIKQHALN
- Sequence (P27986 whole entry partner, species assumed): as the sequence (P27986 whole entry partner, species assumed) above
- experiment_summary: Kinase inhibition assay, P-33 labelled ATP phosphate transfer, PI3K-alpha
- Format: biochemical
- measurement_parameters: read-out: PI3K-alpha (% Inh at 300 nM)
The reply must contain the numeric value and, after it, the unit.

Would you please look over these solved cases?
compound	assayed_system	inhibition at 0.3 µM
O=C(NCCN1CCOCC1)c1cccc(-c2csc3c(=O)nc(N4CCOCC4)oc23)c1 [Compound 16]	PI3K-alpha (Homo sapiens, UniProt P42336)	16%
COc1ccc(C#Cc2csc3c(=O)nc(N4CCOCC4)oc23)cc1 [Compound 20]	PI3K-alpha (Homo sapiens, UniProt P42336)	0%
COc1ccc(-c2csc3c(=O)nc(N4CCOCC4)oc23)cc1 [Compound 14]	PI3K-alpha (Homo sapiens, UniProt P42336)	19%
O=c1nc(N2CCOCC2)[nH]c2c1cnn2Cc1ccccc1 [Compound 23]	PI3K-alpha (Homo sapiens, UniProt P42336)	6.6%

Looking for the measured inhibition at 0.3 µM of Cc1nc2c(=O)nc(N3CCOCC3)[nH]c2n1-c1ccccc1 [Compound 11] , can you help?
2.6%

// lookup inhibition at 0.3 µM for O=c1nc(N2CCOCC2)oc2c(-c3ccc4c(c3)OCCO4)csc12 [Compound 12]
53%

Can you look up the measured inhibition at 0.3 µM of O=c1nc(N2CCOCC2)[nH]c2c1cnn2-c1ccc(Cl)cc1 [Compound 28] for me?
6.9%

Fill blank: measured inhibition at 0.3 µM of the compound O=c1nc(N2CCOCC2)[nH]c2c1cnn2C1CCCCC1 [Compound 8] is ____.
2%

# inhibition at 0.3 µM lookup, item CN(C)c1ccc(-c2csc3c(=O)nc(N4CCOCC4)oc23)cc1 [Compound 15]
11%
